- Test Target: human αVβ6 (Homo sapiens, UniProt P06756+P18564)
- Sequence (P06756 31-992 limits assumed): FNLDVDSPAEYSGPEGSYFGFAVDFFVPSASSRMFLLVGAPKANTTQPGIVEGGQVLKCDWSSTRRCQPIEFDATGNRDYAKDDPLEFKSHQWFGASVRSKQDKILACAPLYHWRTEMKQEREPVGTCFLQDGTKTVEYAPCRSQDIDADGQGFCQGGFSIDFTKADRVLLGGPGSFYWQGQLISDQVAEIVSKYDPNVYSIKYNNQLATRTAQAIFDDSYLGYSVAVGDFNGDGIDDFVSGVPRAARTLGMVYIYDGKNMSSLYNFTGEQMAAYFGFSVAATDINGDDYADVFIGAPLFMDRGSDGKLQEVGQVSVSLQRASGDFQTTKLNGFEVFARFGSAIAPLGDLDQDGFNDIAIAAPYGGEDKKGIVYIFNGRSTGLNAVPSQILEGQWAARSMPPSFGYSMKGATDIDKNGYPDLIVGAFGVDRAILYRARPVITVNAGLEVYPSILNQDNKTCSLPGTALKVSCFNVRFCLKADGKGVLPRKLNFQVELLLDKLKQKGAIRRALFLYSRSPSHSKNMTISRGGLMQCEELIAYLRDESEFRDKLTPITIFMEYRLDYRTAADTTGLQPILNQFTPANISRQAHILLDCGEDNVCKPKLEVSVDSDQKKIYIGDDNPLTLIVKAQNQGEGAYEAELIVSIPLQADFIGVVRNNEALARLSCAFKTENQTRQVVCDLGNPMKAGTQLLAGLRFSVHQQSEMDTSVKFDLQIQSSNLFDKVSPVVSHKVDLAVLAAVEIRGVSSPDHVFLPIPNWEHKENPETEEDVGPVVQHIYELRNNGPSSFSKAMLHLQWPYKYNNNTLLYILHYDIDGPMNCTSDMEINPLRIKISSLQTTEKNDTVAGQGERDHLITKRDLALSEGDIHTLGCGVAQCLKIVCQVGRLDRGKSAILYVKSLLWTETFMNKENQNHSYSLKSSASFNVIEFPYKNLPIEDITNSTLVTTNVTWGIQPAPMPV
- Sequence (P18564 22-707 limits assumed): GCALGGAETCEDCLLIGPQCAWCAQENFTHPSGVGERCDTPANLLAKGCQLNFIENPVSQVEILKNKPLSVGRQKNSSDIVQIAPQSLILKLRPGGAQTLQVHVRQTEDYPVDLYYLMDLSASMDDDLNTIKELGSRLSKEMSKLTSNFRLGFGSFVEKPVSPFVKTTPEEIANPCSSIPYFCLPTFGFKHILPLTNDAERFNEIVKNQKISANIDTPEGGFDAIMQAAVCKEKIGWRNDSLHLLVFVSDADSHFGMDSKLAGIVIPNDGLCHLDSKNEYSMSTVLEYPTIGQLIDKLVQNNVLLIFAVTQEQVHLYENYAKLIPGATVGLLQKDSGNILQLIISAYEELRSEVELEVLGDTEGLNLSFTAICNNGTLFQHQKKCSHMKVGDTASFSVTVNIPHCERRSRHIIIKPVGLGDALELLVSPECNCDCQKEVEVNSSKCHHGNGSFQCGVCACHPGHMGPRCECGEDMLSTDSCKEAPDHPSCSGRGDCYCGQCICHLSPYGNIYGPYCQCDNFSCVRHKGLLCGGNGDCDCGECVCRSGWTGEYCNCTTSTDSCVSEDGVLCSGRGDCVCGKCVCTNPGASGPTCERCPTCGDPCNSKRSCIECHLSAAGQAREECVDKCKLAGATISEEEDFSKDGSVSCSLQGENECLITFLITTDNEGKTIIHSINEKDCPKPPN
- Method Notes: human αVβ6 HTRF binding assay
- Condition Summary: alternatively SPA-based assay
- Text: All binding assays used the HTRF (homogeneous time resolved fluorescence) technology from Cisbio International, therefore all assays are described as HTRF binding assays. The assay results for the Examples are listed above together with the characterization data. The HTRF binding assays are established for the following integrins: human αVβ6, human αVβ1, human αVβ3, human αVβ5, and human αVβ8. […]
pIC50: −log10 of the molar value.
Measurement Name: pIC50

Solved cases (4 shown):
COc1ccc([C@H](CC(=O)O)NC(=O)N2CC(CCc3ccc4c(n3)NCCC4)C2)cn1; 8.55
CC(=O)N(CCCc1ccc2c(n1)NCCC2)C1CC(C(CC(=O)O)c2cccc(N3CCOCC3)c2)C1 (centres unmarked); 8.34
COc1ccc(CN(CCC(=O)O)C2CN(CCCc3ccc4c(n3)NCCC4)C2)cn1; 8.55
N[C@@H](CNC(=O)C1CN(CCc2ccc3c(n2)NCCC3)C1)C(=O)O; 7.70

I: COc1ccc([C@H](CC(=O)O)NC(=O)[C@H]2C[C@@H](CCc3ccc4c(n3)NCCC4)C2)cn1
II: COc1ccc([C@@H](CC(=O)O)N2CC(OCCCc3ccc4c(n3)NCCC4)C2)cc1F
III: O=C(N[C@@H](CC(=O)N1CC(CCc2ccc3c(n2)NCCC3)C1)C(=O)O)OCc1ccccc1
IV: COc1ccc(C(CC(=O)O)C2(F)CN(CCCCc3ccc4c(n3)NCCC4)C2)cc1F (centres unmarked)
query: Rank order required: pIC50, descending. Use the labels to give the requested order.
result: I, IV, III, II

a: COc1ccc([C@H](CC(=O)O)N2CC(CCCc3ccc4c(n3)NCCC4)C2=O)cn1 (single isomer, unassigned) [Example 181]
b: O=C(O)C[C@@H](c1cc(F)cc(F)c1)N1CC(F)(CCCCc2ccc3c(n2)NCCC3)C1
query: In the pair a and b , the larger recorded pIC50 belongs to which? Answer by quoting the chosen item's label.
result: b
(b: 8.70, a: 7.60)

1: COc1ccc([C@H](CC(=O)O)NC2CC3(C2)CN(CCc2ccc4c(n2)NCCC4)C3)cn1
2: O=C(O)C[C@@H](c1ccc2c(c1)OCC2)N1CC(CCCCc2ccc3c(n2)NCCC3)C1=O (some centres unmarked) [Example 104]
3: COc1ccc([C@H](CC(=O)O)NC(=O)C2CC3(C2)CN(CCCc2ccc4c(n2)NCCC4)C3)cn1
4: Cc1cc(C)c(S(=O)(=O)N[C@@H](CNC(=O)C2CC3(CC(CCc4ccc5c(n4)NCCC5)C3)C2)C(=O)O)c(C)c1 (some centres unmarked)
5: O=C(N[C@@H](CNC(=O)C1(F)CN(CCc2ccc3c(n2)NCCC3)C1)C(=O)O)OCc1ccccc1
query: Order the records, beginning with the lowest pIC50 and ending with the highest. Use the labels to give the requested order.
result: 3, 1, 2, 4, 5
(3: 6.89, 1: 7.77, 2: 8.65, 4: 8.89, 5: 9.30)

A: COc1ccc([C@H](CC(=O)O)NC(=O)C2CN(CCCc3ccc4c(n3)NCCC4)C2)cn1
B: O=C(O)C[C@H](NC(=O)[C@H]1C[C@H](CCc2ccc3c(n2)NCCC3)C1)c1cnc2ccccc2c1
C: O=C(O)CC(c1ccc2nccnc2c1)C1CC(NCCCc2ccc3c(n2)NCCC3)C1 (centres unmarked)
D: COc1ccc([C@H](CC(=O)O)NC(=O)C2CC3(CC(CCc4ccc5c(n4)NCCC5)C3)C2)cn1 (mixture of isomers)
query: Order the records, beginning with the lowest pIC50 and ending with the highest. Use the labels to give the requested order.
result: D, C, A, B
